- tested on: OsWOX13 (Oryza sativa, UniProt Q5QMM3 1-267)
- Sequence: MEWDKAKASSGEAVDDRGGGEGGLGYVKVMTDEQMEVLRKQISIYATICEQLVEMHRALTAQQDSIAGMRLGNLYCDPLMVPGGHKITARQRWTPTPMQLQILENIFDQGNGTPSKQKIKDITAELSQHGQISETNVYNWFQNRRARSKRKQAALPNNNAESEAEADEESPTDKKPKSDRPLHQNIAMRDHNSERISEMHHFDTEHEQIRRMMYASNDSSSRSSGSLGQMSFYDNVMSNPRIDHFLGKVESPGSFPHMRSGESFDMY
- assay method text: protein-binding microarray (RPBM); PBS, 2% BSA, 51.3 ng/ul salmon testes DNA, 50 uM zinc acetate, 200 nM TF, 25 C, 1 h; high values mean tight binding
- cond: protein: recombinant; tags: N-terminal polyhistidine and DsRed monomer fusion (pET32a); label: CyDye5-dUTP incorporated in the synthesized complementary strand; 3' TTTTT single-stranded linker to array surface; dsDNA, one strand shown
The full ranking holds about 35,000 sequences; the median of “fluorescence intensity (a.u.)” is about 10,000, and the highest 2% start at about 52,000. The full list was thinned out, with the highest values kept by preference.
measured parameter: binding signal

- CCGACGGCTCAGATTGACTGCAGTAGTGGGTATCTCTTCTCGGAGTCACCTAGTGCAG: 13700 fluorescence intensity (a.u.)
- AAATATTATAATTGATTGTCGATGAAACATCGGGTTGTACCGGAGTCACCTAGTGCAG: 46200 fluorescence intensity (a.u.)

Could you please provide reported binding signal for CTCGCCGTCCATCCTTCCCTGCGTCCAATCCCCACCCTCCCGGAGTCACCTAGTGCAG ? Thanks!
60200 fluorescence intensity (a.u.)

Could you please provide reported binding signal for GGGCCTGGTCCTGATTGGACTTCCTTATCTGTCTATCACACGGAGTCACCTAGTGCAG ? Thanks!
10700 fluorescence intensity (a.u.)

Could you please provide reported binding signal for AGACTATTTACAAAACTAATTACATAAATGAAAGCTAACTCGGAGTCACCTAGTGCAG ? Thanks!
5260 fluorescence intensity (a.u.)

Could you please provide reported binding signal for TTTGTGATTAAGCTCTTGGTCTCGTCTCCGCGAGCTCAGCCGGAGTCACCTAGTGCAG ? Thanks!
5540 fluorescence intensity (a.u.)

Could you please provide reported binding signal for TCAAATACTGCTGATTATACATACCCACATGTGTTGAATGCGGAGTCACCTAGTGCAG ? Thanks!
3580 fluorescence intensity (a.u.)

Could you please provide reported binding signal for AGTTAATAACAAGAAATTATTCATTTAAATTTAGGGCAAACGGAGTCACCTAGTGCAG ? Thanks!
9460 fluorescence intensity (a.u.)

Could you please provide reported binding signal for CCGTGCTCAACTACCCAATCACTCCAAATTAAGCTCGCATCGGAGTCACCTAGTGCAG ? Thanks!
3750 fluorescence intensity (a.u.)
